Ref: PubChem BioAssay (Tox21)

Molecular target: Cytochrome P450 2C9 (Homo sapiens) (UniProt P11712)
Sequence (P11712 whole entry, looked up): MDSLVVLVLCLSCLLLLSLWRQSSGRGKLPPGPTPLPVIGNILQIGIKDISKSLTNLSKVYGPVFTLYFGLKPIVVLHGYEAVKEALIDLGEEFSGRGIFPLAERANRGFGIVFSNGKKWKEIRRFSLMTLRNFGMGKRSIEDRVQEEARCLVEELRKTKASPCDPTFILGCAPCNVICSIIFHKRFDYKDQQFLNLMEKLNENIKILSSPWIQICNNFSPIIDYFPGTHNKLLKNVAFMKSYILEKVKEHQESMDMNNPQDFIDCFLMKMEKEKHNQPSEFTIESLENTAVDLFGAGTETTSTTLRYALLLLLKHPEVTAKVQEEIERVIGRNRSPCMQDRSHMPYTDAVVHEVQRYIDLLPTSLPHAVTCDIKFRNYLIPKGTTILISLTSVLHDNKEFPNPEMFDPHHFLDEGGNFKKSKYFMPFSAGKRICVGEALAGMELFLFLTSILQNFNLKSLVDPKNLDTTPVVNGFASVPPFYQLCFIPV
Assay: Cytochrome P450 Family 2 Subfamily C Member 9 (CYP2C9) small molecule antagonists: luciferase reporter qHTS assay (AID 1671198); also: nearly all actives have a fitted effect of over 50% in size
Conditions: P450-Glo CYP2C9 enzyme assay, luciferin luminescence; series mostly up to 115 µM
Records with an inconclusive call do not appear. Calls of active or inactive are those of the source. Calls follow the shape of the dose curve; as a rule, active = well fitted inhibition curve with a large enough effect in the repeat runs; inconclusive = weak or mixed curves; inactive = no such curve, though single readings can be large or run the other way.
Labels: active, inactive

{"columns": ["compound", "study-system", "label"],
 "data": [
  ["CCC1(C)C(=O)N(Cl)C(=O)N1Cl (stereo not given)", "Cytochrome P450 2C9 (Homo sapiens) (UniProt P11712)", "inactive"],
  ["Nc1c(Br)cc([N+](=O)[O-])cc1Br", "Cytochrome P450 2C9 (Homo sapiens) (UniProt P11712)", "inactive"],
  ["O=C(Nc1ccccc1)c1cc(Cl)ccc1O", "Cytochrome P450 2C9 (Homo sapiens) (UniProt P11712)", "active"],
  ["CCN(CCC#N)c1ccc(N=Nc2ccc([N+](=O)[O-])cc2)cc1", "Cytochrome P450 2C9 (Homo sapiens) (UniProt P11712)", "inactive"],
  ["SC1CCCCC1", "Cytochrome P450 2C9 (Homo sapiens) (UniProt P11712)", "inactive"],
  ["N#Cc1nc(Cl)c(Cl)c(Cl)c1Cl", "Cytochrome P450 2C9 (Homo sapiens) (UniProt P11712)", "active"],
  ["CC1(C)[C@H]2CC[C@]1(C)C(=O)C2", "Cytochrome P450 2C9 (Homo sapiens) (UniProt P11712)", "inactive"],
  ["NCc1cccc(C2CCN(C(=O)c3ccc(C#Cc4ccccc4F)o3)CC2)c1", "Cytochrome P450 2C9 (Homo sapiens) (UniProt P11712)", "active"],
  ["Cc1cc(F)ccc1-c1cc(N2CC[C@@H](O)[C@H]2CO)ncc1N(C)C(=O)C(C)(C)c1cc(C(F)(F)F)cc(C(F)(F)F)c1", "Cytochrome P450 2C9 (Homo sapiens) (UniProt P11712)", "active"],
  ["Cc1ccc(S(=O)(=O)C(I)I)cc1", "Cytochrome P450 2C9 (Homo sapiens) (UniProt P11712)", "active"],
  ["CC(C)C(=O)C(C)C", "Cytochrome P450 2C9 (Homo sapiens) (UniProt P11712)", "inactive"],
  ["CCC(=O)OC/C=C(\\C)CCC=C(C)C", "Cytochrome P450 2C9 (Homo sapiens) (UniProt P11712)", "inactive"],
  ["CCCCCc1ccc(O)cc1", "Cytochrome P450 2C9 (Homo sapiens) (UniProt P11712)", "active"],
  ["Cc1ccc2sc3cccc(C)c3c2c1", "Cytochrome P450 2C9 (Homo sapiens) (UniProt P11712)", "inactive"],
  ["CC(Cc1ccc(O)c(O)c1)C(C)Cc1ccc(O)c(O)c1 (stereo not given)", "Cytochrome P450 2C9 (Homo sapiens) (UniProt P11712)", "active"],
  ["CCOC(=O)OC(=O)OCC", "Cytochrome P450 2C9 (Homo sapiens) (UniProt P11712)", "inactive"],
  ["CCN(CC)c1ccc(C=O)cc1", "Cytochrome P450 2C9 (Homo sapiens) (UniProt P11712)", "inactive"],
  ["O=c1cc[nH]cc1", "Cytochrome P450 2C9 (Homo sapiens) (UniProt P11712)", "inactive"],
  ["[Cl][Eu]([Cl])[Cl]", "Cytochrome P450 2C9 (Homo sapiens) (UniProt P11712)", "inactive"],
  ["CN[C@H]1CC[C@@H](c2ccc(Cl)c(Cl)c2)c2ccc(S(N)(=O)=O)cc21", "Cytochrome P450 2C9 (Homo sapiens) (UniProt P11712)", "active"],
  ["C/C(=N\\[Si](C)(C)C)O[Si](C)(C)C", "Cytochrome P450 2C9 (Homo sapiens) (UniProt P11712)", "inactive"],
  ["NC(=O)c1ccccc1Cl", "Cytochrome P450 2C9 (Homo sapiens) (UniProt P11712)", "inactive"],
  ["O=C1OC(O)C(C(Cl)Cl)=C1Cl (stereo not given)", "Cytochrome P450 2C9 (Homo sapiens) (UniProt P11712)", "inactive"],
  ["C=Cc1ccc(O)c(OC)c1", "Cytochrome P450 2C9 (Homo sapiens) (UniProt P11712)", "active"],
  ["O=[N+]([O-])c1ccc(O)c2ncccc12", "Cytochrome P450 2C9 (Homo sapiens) (UniProt P11712)", "active"]
]}

---

Target: Cytochrome P450 3A4 (Homo sapiens)
Test: Cytochrome P450 Family 3 Subfamily A Member 4 (CYP3A4) small molecule antagonists: luciferase reporter qHTS assay (AID 1671201); also: nearly all actives have a fitted effect of over 50% in size
Conditions: P450-Glo CYP3A4 enzyme, luciferin luminescence, 1 h; series mostly up to 115 µM
Text: National Center for Advancing Translational Sciences [NCATS] U.S. Environmental Protection Agency [EPA] National Institutes of Environmental Health Sciences [NIEHS] National Toxicology Program [NTP] U.S. Food and Drug Administration [FDA] Cytochrome P450 (CYP) enzymes are membrane-bound hemeproteins that play a key role in metabolism of drugs and xenobiotics. […] The luciferin products formed are detected with a luciferin detection reagent, and the amount of light produced is proportional to CYP activity. […]
Records with an inconclusive call do not appear. The source made the active and inactive calls. Calls come from the whole dose curve; as a rule, active = well fitted inhibition curve with a large enough effect in the repeat runs; inconclusive = weak or mixed curves; inactive = no such curve, though single readings can be large or run the other way.
Labels: active, inactive

{"columns": ["molecule", "label"],
 "data": [
  ["CC(C)(C)C1=CC(=O)C(C(C)(C)C)=CC1=O", "inactive"],
  ["Cc1cccc2c1ccc1ccccc12", "inactive"],
  ["CCCCCCCCSCc1cc(C)c(O)c(CSCCCCCCCC)c1", "inactive"],
  ["N#Cc1nc(Cl)c(Cl)c(Cl)c1Cl", "inactive"],
  ["CCNc1nc(NC(C)(C)C)nc(OC)n1", "inactive"],
  ["NCc1cccc(C2CCN(C(=O)c3ccc(C#Cc4ccccc4F)o3)CC2)c1", "active"],
  ["SC1CCCCC1", "inactive"],
  ["C=C(C)CCO", "inactive"],
  ["O=C1CCC(=O)N1", "inactive"],
  ["CC1(C)[C@H]2CC[C@]1(C)C(=O)C2", "inactive"],
  ["Nc1ccc(Oc2cccc(Oc3ccc(N)cc3)c2)cc1", "active"],
  ["CCOC(=O)OC(=O)OCC", "inactive"],
  ["C=C(C)C1CCC(C)CC1O (stereo not drawn)", "inactive"],
  ["CCCCCCCCOC(=O)c1cc(O)c(O)c(O)c1", "active"],
  ["C=CC(C)(C)O", "inactive"],
  ["Cc1ccc(N=Nc2c(O)ccc3ccccc23)c(C)c1", "inactive"],
  ["CCOC(=O)C1=NN(c2ccc(Cl)cc2Cl)C(C)(C(=O)OCC)C1 (stereo not drawn)", "active"],
  ["Cc1ccc2nc(-c3ccc(N)cc3)sc2c1S(=O)(=O)O", "inactive"]
]}
